# tested on: Wild type CCR5, endogenous on human monocyte-derived macrophages (human (endogenous in monocyte-derived macrophages)), P51681
# Sequence (P51681 whole entry): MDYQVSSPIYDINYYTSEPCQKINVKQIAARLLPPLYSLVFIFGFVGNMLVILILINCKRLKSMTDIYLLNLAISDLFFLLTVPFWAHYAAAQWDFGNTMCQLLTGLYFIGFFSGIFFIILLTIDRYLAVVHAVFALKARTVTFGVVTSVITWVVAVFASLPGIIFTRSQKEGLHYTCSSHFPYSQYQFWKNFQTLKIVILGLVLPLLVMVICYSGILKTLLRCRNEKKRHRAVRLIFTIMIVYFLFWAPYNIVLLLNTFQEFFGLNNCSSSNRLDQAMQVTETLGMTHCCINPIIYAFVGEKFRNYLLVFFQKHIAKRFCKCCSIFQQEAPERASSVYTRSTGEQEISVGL
# assay name: radioligand binding; competition: human macrophages (membranes) pretreated with different amounts of CCR5-T4L or CCL5, or CCL5 plus CCR5-T4L; specific binding of 0.3 nmol/L [125I]-CCL5, 2 h at 37°C, unbound ligand removed through a 10% sucrose/PBS cushion, gamma counting
# test parameters: remark: other sources report otherwise
pEC50: −log10 of the molar value.

# binder, pEC50
data = [
    ("Chemokine (C-C motif) ligand 5 (CCL5), unlabelled, P13501 24-91 (ligand) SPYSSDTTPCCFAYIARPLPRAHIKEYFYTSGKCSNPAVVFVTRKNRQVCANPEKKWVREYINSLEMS", 10.34),
]

Data provenance: paper PMC4496087
